Target: Electrophorus electricus AChE (Electrophorus electricus)
Construct: purchased Sigma-Aldrich C2888
Sequence (O42275 24-633): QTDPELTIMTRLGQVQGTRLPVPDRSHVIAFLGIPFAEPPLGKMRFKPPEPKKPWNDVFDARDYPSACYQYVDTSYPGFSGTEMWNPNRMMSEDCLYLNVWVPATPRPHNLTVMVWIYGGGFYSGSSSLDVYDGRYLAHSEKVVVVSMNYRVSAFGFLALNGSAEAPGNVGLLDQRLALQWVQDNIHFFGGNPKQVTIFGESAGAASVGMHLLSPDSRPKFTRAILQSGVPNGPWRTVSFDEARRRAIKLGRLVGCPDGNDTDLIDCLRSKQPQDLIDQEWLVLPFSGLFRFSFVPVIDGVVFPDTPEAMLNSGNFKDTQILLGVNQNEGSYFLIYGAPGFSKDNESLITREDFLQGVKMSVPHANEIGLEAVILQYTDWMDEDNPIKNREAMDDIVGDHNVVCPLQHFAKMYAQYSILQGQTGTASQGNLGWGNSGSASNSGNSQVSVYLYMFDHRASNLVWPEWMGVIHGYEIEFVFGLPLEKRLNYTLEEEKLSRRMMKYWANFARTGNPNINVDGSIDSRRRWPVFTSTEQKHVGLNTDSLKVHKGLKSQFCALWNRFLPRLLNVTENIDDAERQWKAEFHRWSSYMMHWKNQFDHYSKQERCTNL
Assay: AChE inhibition, electric eel enzyme (Ellman method)
Assay type: biochemical
Parameter: IC50. Scope: all listed entries.

The cases that follow already have their IC50 on record.
CCOP(=S)(OCC)Oc1nc(Cl)c(Cl)cc1Cl [CPF, Chlorpyrifos] = > 0.35 µM
COP(=S)(OC)SCN1C(=O)c2ccccc2C1=O [PM, phosmet] = > 1.4 µM

Could you now look at the following compound, please?
Query string: Requested field: IC50. Item: CCOP(=S)(OCC)Oc1cc(C)nc(C(C)C)n1 [DZN, diazinon]
Result string: > 8.5 µM
